- Test system: Vero E6
- method: cell viability relative to DMSO; higher = less toxic
- testContext: 72 h; 1 nM
readoutName: cell viability (%)

| compound | obsValue |
| --- | --- |
| CCOC1O[C@H]([C@@H](COCc2ccccc2)OCc2ccccc2)[C@H](OCc2ccccc2)[C@H]1O (stereo partly drawn) [tribenoside] | 91.6 |
| O=C(O)Cc1cccc(OCCCN(Cc2cccc(C(F)(F)F)c2Cl)CC(c2ccccc2)c2ccccc2)c1 [GW-3965] | 112 |
| Cn1c(C#N)ccc1-c1ccc2c(c1)C(C)(C)OC(=S)N2 [tanaproget] | 102 |
| O=c1[nH]c2ccccc2c(=O)n1CCCN1CCN(c2ccccc2)CC1 [pelanserin] | 104 |
| NC(=O)c1cccc(N)c1 [3-amino-benzamide] | 95.7 |
| CC1=C(C(=O)OC2CCCCC2)C(c2ccc([N+](=O)[O-])cc2)C2=C(CC(C)(C)CC2=O)N1 (stereo not drawn) [FLI-06] | 94.2 |
| O=C1N(c2ccccc2)c2ccccc2C1(Cc1ccncc1)Cc1ccncc1 [linopirdine] | 106 |
| CO[C@@H]1COCC[C@@H]1N[C@@H]1CC[C@@](C(=O)N2CCc3ncc(C(F)(F)F)cc3C2)(C(C)C)C1 [MK-0812] | 102 |
| Oc1cc2c(cc1O)[C@H](Cc1cccc3ccccc13)NCC2 [CKD-712] | 102 |
| O=C(NN1C(=O)[C@@H]2[C@@H]3C=C[C@@H]([C@H]4C[C@@H]34)[C@@H]2C1=O)c1ccc(C(F)(F)F)cc1 [tecovirimat] | 98.5 |
| CC(C)NCC(O)COc1ccc(COCCOC(C)C)cc1 (stereo not drawn) [bisoprolol] | 92 |
| CCOc1ccc2ccccc2c1C(=O)N[C@@H]1C(=O)N2[C@@H]1SC(C)(C)[C@@H]2C(=O)O [nafcillin] | 103 |
| O=C(Nc1cc(-c2ccccc2)nn1-c1ccccc1)c1ccc([N+](=O)[O-])cc1 [VU29] | 100 |
| c1ccc2c(-c3cnn4cc(-c5ccc(N6CCNCC6)cc5)cnc34)ccnc2c1 | 90 |
| O=C1CC[C@@H](C(=O)N2CSC[C@H]2C(=O)O)N1 [pidotimod] | 97.8 |
| Cc1ccc2c(N3CCN(CCc4cccc(N5CCNC5=O)c4)CC3)cccc2n1 | 99.8 |
| C[C@H]1N=C(N(C)C)N=C(N)N1 [imeglimin] | 92.5 |
| CN/C(=N\CCSCc1nc[nH]c1C)NC#N [cimetidine] | 94.5 |
